# Measured Target: full-length kinase/Nluc fusion proteins (Homo sapiens, UniProt P21802)
# Sequence (P21802 22-821): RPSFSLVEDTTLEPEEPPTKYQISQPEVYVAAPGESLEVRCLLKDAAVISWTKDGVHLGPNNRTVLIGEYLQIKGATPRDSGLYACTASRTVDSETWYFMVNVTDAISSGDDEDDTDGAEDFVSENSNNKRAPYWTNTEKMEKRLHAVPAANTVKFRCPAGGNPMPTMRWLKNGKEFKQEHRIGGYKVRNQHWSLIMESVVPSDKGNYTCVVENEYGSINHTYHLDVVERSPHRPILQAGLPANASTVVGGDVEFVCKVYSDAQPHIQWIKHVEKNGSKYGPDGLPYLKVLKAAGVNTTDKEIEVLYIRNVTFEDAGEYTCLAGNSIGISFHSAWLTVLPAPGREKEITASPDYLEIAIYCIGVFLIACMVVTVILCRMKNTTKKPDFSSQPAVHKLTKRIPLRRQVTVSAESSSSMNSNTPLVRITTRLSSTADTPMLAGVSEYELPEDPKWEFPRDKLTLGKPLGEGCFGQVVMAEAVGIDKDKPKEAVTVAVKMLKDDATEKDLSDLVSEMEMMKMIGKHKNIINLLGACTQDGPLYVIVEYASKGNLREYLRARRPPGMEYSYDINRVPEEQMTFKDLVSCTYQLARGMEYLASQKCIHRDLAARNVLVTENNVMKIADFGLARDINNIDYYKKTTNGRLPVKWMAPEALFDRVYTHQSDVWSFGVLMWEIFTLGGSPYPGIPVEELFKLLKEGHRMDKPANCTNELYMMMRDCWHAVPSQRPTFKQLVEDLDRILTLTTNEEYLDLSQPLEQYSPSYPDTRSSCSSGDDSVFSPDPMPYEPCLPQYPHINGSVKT
# Assay Overview: Apparent affinity (EC50) of energy transfer probes by titration onto live HEK293 cells expressing kinase/Nluc fusions (Table S1)
# Conditions Used: FGFR2, Nluc C; read-out: Probe EC50
Outcome Measure: pEC50
Give bare numbers, as −log10 of the molar value.

pEC50 reported for this molecule CNC(=O)c1ccccc1Nc1nc(Nc2ccc(N3CCN(C(=O)CCOCCOCCOCCOCCNC(=O)CCc4ccc5n4[B-](F)(F)[N+]4=C(c6ccc[nH]6)C=CC4=C5)CC3)cc2)ncc1Cl [Energy Transfer Probe 5] : 6.22

----------
# Measured Target: full-length kinase/Nluc fusion proteins (Homo sapiens, UniProt P00519)
# Sequence (P00519 whole entry, the tested form may be a part): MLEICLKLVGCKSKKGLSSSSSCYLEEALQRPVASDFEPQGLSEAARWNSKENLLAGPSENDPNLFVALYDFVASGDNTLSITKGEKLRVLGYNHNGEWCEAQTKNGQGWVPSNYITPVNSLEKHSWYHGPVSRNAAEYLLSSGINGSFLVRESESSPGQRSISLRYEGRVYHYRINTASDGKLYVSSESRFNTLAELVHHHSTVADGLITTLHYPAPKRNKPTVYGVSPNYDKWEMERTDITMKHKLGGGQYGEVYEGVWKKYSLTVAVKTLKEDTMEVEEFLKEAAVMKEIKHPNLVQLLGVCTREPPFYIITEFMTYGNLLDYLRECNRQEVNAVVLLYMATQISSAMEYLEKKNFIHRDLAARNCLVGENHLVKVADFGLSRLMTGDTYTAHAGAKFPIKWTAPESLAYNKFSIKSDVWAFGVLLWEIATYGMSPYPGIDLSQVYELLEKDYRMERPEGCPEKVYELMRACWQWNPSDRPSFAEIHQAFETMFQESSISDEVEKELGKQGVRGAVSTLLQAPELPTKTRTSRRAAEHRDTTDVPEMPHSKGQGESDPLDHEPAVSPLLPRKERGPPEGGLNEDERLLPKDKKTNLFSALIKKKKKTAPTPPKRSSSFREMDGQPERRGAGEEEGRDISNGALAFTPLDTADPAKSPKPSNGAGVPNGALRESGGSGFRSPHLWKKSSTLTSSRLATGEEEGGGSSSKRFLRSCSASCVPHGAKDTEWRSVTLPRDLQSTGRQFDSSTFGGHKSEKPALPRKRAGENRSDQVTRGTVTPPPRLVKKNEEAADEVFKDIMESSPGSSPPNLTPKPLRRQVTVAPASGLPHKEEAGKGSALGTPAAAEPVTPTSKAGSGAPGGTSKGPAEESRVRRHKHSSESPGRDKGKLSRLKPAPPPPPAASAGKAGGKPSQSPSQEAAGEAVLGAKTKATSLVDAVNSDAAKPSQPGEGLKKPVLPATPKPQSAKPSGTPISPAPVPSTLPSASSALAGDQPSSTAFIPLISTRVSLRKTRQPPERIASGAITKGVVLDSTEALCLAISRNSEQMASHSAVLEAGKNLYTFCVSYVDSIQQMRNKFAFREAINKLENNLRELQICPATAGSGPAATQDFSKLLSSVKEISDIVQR
# Assay Overview: Apparent affinity (EC50) of energy transfer probes by titration onto live HEK293 cells expressing kinase/Nluc fusions (Table S1)
# Conditions Used: ABL1, Nluc N; read-out: Probe EC50
Outcome Measure: EC50
Form field: result (number plus unit)

EC50 reported for this molecule Cc1nc(Nc2ncc(C(=O)Nc3c(C)cccc3Cl)s2)cc(N2CCN(CCOCCNC(=O)CCc3ccc4n3[B-](F)(F)[N+]3=C(c5ccc[nH]5)C=CC3=C4)CC2)n1 [Energy Transfer Probe 6] : 200 nM

----------
# Measured Target: full-length kinase/Nluc fusion proteins (Homo sapiens, UniProt O43283)
# Sequence (O43283 1-966): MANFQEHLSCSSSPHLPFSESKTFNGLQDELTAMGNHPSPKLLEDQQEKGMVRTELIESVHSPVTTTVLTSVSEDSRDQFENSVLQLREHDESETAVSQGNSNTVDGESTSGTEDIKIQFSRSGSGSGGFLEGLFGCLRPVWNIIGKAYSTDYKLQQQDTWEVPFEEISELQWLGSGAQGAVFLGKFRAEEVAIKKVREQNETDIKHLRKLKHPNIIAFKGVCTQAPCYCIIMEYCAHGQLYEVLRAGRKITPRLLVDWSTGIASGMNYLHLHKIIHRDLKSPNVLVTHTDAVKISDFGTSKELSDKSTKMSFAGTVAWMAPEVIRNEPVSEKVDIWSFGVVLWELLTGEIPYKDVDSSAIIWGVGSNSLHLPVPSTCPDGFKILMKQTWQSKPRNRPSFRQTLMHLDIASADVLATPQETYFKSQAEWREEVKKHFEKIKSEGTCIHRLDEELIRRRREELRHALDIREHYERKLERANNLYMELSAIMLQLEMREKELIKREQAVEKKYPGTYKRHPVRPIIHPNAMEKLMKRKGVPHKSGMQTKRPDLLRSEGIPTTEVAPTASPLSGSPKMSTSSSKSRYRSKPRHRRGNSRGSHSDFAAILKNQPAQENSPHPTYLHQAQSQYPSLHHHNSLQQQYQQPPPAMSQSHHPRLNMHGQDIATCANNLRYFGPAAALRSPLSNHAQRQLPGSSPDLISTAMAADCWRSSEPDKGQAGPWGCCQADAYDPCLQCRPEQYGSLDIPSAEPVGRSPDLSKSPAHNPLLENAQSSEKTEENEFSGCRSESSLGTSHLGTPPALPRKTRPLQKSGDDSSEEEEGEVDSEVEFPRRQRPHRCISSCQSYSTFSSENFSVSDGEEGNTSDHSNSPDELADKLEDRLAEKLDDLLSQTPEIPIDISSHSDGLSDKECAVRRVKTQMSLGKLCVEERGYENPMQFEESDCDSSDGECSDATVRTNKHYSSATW
# Assay Overview: Apparent affinity (EC50) of energy transfer probes by titration onto live HEK293 cells expressing kinase/Nluc fusions (Table S1)
# Conditions Used: MAP3K13, Nluc N; read-out: Probe EC50
Outcome Measure: EC50
Form field: result (number plus unit)

EC50 reported for this molecule CNC(=O)c1ccccc1Nc1nc(Nc2ccc(N3CCN(C(=O)CCOCCOCCOCCOCCNC(=O)CCc4ccc5n4[B-](F)(F)[N+]4=C(c6ccc[nH]6)C=CC4=C5)CC3)cc2)ncc1Cl [Energy Transfer Probe 5] : 200 nM
